- Assay Target: T1, ProQ (Escherichia coli, UniProt P45577 1-232)
- T1 sequence: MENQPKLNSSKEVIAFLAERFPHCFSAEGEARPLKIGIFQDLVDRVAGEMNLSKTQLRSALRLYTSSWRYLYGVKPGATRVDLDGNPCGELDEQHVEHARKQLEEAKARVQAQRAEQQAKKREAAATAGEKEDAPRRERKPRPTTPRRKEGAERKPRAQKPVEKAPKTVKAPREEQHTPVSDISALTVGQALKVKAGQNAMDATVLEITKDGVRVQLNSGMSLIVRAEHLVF
- Assay Summary: EMSA; max bound 85%; 150 mM NaCl, 25 mM Tris-HCl pH 7.5, 5% glycerol, 1 mM MgCl2, 1 nM 32P-RNA, 30 min at room temperature; native 6% PAGE in 0.5x TBE at 4 C
- Measurement Context: protein: recombinant; tags: pET-15b construct; label: 32P; terminator hairpin
Metric Name: Kd (nM)
Form entry: value (nM) — number only.

Entry under test: cspE81-FinP-stem (structured_RNA) RNA: GGCCCUUCUGCUGCAAACGUAAUCGCUCUGUAAGAUACGUCAGCAAGAAUUCAACAGUCGCUUAAUCAGCGGCGAUUUU . Its Kd was 130
